# target: Nicotinic acetylcholine receptor alpha9/alpha10 (Rattus norvegicus, UniProt P43144+Q9JLB5)
# Sequence (P43144 whole entry): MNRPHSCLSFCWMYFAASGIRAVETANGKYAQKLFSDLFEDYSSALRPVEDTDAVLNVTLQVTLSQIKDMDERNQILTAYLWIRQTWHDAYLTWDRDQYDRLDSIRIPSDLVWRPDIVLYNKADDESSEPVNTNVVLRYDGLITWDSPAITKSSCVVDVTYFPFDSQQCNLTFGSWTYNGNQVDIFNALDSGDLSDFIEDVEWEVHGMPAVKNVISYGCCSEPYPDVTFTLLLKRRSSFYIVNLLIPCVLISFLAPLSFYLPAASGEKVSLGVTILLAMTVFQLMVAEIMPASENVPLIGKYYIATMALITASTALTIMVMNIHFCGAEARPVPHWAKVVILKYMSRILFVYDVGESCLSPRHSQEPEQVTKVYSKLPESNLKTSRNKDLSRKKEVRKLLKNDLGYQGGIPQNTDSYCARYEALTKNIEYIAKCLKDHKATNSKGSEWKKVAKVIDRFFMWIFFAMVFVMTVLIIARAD
# Sequence (Q9JLB5 whole entry): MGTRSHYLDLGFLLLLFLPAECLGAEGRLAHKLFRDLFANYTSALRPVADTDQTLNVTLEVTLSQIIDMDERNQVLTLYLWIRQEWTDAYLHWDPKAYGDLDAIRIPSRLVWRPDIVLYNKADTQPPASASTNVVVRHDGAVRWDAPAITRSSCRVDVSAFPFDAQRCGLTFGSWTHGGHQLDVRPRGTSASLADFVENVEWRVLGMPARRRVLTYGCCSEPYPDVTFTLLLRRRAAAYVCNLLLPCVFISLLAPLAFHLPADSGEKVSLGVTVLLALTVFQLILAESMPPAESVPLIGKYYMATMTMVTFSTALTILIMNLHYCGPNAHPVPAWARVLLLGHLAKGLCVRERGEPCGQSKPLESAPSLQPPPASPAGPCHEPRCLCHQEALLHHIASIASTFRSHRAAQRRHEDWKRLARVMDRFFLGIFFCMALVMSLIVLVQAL
# protocol-description: Antagonist activity at rat alpha9alpha10 nACh receptor expressed in Xenopus oocyte assessed as inhibition of acetylcholine-induced response at -70 mV holding potential by voltage-clamp based electrophysiological assay
Entries and their measured IC50 follow.
experimental-endpoint: IC50 (nM)

CC[C@H](C)[C@H](NC(=O)[C@H](CCC(=O)O)NC(=O)[C@@H]1CCCN1C(=O)[C@H](Cc1cnc[nH]1)NC(=O)[C@H](CC(=O)O)NC(=O)[C@H](Cc1ccc(O)cc1)NC(=O)[C@H](CC(N)=O)NC(=O)[C@H](CS)NC(=O)[C@H](CCCNC(=N)N)NC(=O)[C@@H]1CCCN1C(=O)[C@H](CC(=O)O)NC(=O)[C@H](CO)NC(=O)[C@H](CS)NC(=O)[C@H](CS)NC(=O)CN)C(=O)N[C@@H](CS)C(N)=O
70
N=C(N)NCCC[C@H](NC(=O)[C@H](CS)NC(=O)[C@H](CCCNC(=N)N)NC(=O)[C@H](Cc1ccc(O)cc1)NC(=O)[C@H](CCCNC(=N)N)NC(=O)[C@H](CS)NC(=O)[C@H](CCCNC(=N)N)NC(=O)[C@@H]1CCCN1C(=O)[C@H](CC(=O)O)NC(=O)[C@H](CO)NC(=O)[C@H](CS)NC(=O)[C@H](CS)NC(=O)CN)C(=O)O
1.5
C[C@@H](O)[C@H](NC(=O)[C@H](CS)NC(=O)[C@H](CS)NC(=O)CN)C(=O)N[C@@H](CC(=O)O)C(=O)N1CCC[C@H]1C(=O)N[C@@H](CCCNC(=N)N)C(=O)N[C@@H](CS)C(=O)N[C@@H](CCCNC(=N)N)C(=O)N[C@@H](Cc1ccc(O)c(I)c1)C(=O)N[C@@H](CCC(N)=O)C(=O)N[C@@H](CS)C(=O)N[C@@H](Cc1ccc(O)cc1)C(=O)O
0.9

----------
Recorded Ratio IC50 values for a group of molecules are listed next.
# protocol-description: Selectivity ratio of IC50 for human alpha9alpha10 nACh receptor to IC50 for rat alpha9alpha10 nACh receptor
Where a SMILES comes first, the peptide text is derived from it.
experimental-endpoint: Ratio IC50

N=C(N)NCCC[C@H](NC(=O)[C@H](CS)NC(=O)[C@H](CCCNC(=N)N)NC(=O)[C@H](Cc1ccc(O)cc1)NC(=O)[C@H](CCCNC(=N)N)NC(=O)[C@H](CS)NC(=O)[C@H](CCCNC(=N)N)NC(=O)[C@@H]1CCCN1C(=O)[C@H](CC(=O)O)NC(=O)[C@H](CO)NC(=O)[C@H](CS)NC(=O)[C@H](CS)NC(=O)CN)C(=O)O
329
C[C@@H](O)[C@H](NC(=O)[C@H](CS)NC(=O)[C@H](CS)NC(=O)CN)C(=O)N[C@@H](CC(=O)O)C(=O)N1CCC[C@H]1C(=O)N[C@@H](CCCNC(=N)N)C(=O)N[C@@H](CS)C(=O)N[C@@H](CCCNC(=N)N)C(=O)N[C@@H](Cc1ccc(O)c(I)c1)C(=O)N[C@@H](CCC(N)=O)C(=O)N[C@@H](CS)C(=O)N[C@@H](Cc1ccc(O)cc1)C(=O)O
1.7
CC(C)C[C@H](NC(=O)[C@H](CCC(=O)O)NC(=O)[C@@H]1CCCN1C(=O)[C@H](Cc1cnc[nH]1)NC(=O)[C@H](CC(N)=O)NC(=O)[C@@H](NC(=O)[C@H](CO)NC(=O)[C@H](CS)NC(=O)[C@H](C)NC(=O)[C@@H]1CCCN1C(=O)[C@H](Cc1cnc[nH]1)NC(=O)[C@H](CO)NC(=O)[C@H](CS)NC(=O)[C@H](CS)NC(=O)CN)C(C)C)C(=O)N[C@@H](CS)C(N)=O (H-GCCSHPACSVNHPELC-NH2)
3.2
CC[C@H](C)[C@H](NC(=O)[C@H](CCC(=O)O)NC(=O)[C@@H]1CCCN1C(=O)[C@H](Cc1cnc[nH]1)NC(=O)[C@H](CC(=O)O)NC(=O)[C@H](Cc1ccc(O)cc1)NC(=O)[C@H](CC(N)=O)NC(=O)[C@H](CS)NC(=O)[C@H](CCCNC(=N)N)NC(=O)[C@@H]1CCCN1C(=O)[C@H](CC(=O)O)NC(=O)[C@H](CO)NC(=O)[C@H](CS)NC(=O)[C@H](CS)NC(=O)CN)C(=O)N[C@@H](CS)C(N)=O
4.6
